target.of.assay: TDO (A172 cells) (Homo sapiens, UniProt P48775)
Construct: This assay utilised cancer cells which expressed either TDO or IDO; host or cells: A172 human glioblastoma cells
Sequence (P48775 whole entry): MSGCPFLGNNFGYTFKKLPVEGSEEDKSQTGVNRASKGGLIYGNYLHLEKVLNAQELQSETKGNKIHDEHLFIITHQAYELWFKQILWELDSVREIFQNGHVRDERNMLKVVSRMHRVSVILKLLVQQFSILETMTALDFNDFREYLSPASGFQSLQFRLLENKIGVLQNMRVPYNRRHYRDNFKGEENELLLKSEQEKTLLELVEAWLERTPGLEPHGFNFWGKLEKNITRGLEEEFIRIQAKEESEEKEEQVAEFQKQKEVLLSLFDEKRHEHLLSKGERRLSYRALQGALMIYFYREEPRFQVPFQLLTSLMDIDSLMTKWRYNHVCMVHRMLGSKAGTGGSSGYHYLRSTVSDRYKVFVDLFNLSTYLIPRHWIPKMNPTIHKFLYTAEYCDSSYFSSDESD
protocol.description: TDO cell-based assay (A172), kynurenine production
assay.conditions: A172 human glioblastoma cells, 500 μM L-Trp, 48 h, kynurenine by absorbance at 490 nm
reported.endpoint: TDO cellular assay (A172) pIC50

Please review the following examples before continuing.
CC(NC(=O)c1cc2cc(Cl)ccc2[nH]1)c1ncco1 (centres unmarked) [Compound 104] = + (+ = pIC50 4.50-<5.00)
O=C(NCCc1nccs1)c1cc2cc(Cl)ccc2[nH]1 [Compound 110] = − (− = pIC50 <4.50)
Cn1cc(C2(NC(=O)c3cc4cc(Br)ccc4[nH]3)COC2)cn1 [Compound 238] = − (− = pIC50 <4.50)
C[C@@H](NC(=O)c1cc2c(F)c(Cl)ccc2[nH]1)c1ccccc1 [Compound 183] = + (+ = pIC50 4.50-<5.00)
O=C(NCc1ccccc1)c1cc2ccccc2[nH]1 [Compound 10] = + (+ = pIC50 4.50-<5.00)

Form: item CCOc1ccc2[nH]c(C(=O)N[C@H](C)c3ccccc3)cc2c1 [Compound 270] ; test system TDO (A172 cells) (Homo sapiens, UniProt P48775); TDO cellular assay (A172) pIC50: − (− = pIC50 <4.50)

Form: item O=C(NC1(c2ccccc2)COC1)c1cc2cc(Cl)ccc2[nH]1 [Compound 142] ; test system TDO (A172 cells) (Homo sapiens, UniProt P48775); TDO cellular assay (A172) pIC50: + (+ = pIC50 4.50-<5.00)

Form: item COCCn1cc(C(C)NC(=O)c2cc3cc(Cl)ccc3[nH]2)cn1 (centres unmarked) [Compound 195] ; test system TDO (A172 cells) (Homo sapiens, UniProt P48775); TDO cellular assay (A172) pIC50: − (− = pIC50 <4.50)

Form: item O=C(NCc1ccc(Cl)cc1)c1cc2ccccc2[nH]1 [Compound 9] ; test system TDO (A172 cells) (Homo sapiens, UniProt P48775); TDO cellular assay (A172) pIC50: − (− = pIC50 <4.50)
